System: human ALK5 (Homo sapiens (Human), UniProt P36897)
Sequence (P36897 80-503 limits assumed): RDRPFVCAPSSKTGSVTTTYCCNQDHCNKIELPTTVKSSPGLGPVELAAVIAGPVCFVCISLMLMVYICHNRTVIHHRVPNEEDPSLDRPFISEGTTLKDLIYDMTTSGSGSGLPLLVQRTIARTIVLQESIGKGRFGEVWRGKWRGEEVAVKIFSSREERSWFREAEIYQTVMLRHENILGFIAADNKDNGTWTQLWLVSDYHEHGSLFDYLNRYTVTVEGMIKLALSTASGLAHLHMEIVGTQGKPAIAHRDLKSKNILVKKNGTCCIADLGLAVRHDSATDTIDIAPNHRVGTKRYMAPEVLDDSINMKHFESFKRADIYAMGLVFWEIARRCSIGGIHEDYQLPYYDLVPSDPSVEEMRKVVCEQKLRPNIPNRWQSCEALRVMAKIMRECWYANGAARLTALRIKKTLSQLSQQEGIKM
Test Summary: ADP-GLO Kinases assay, ALK5 enzymatic activity
Test Conditions: purified recombinant human ALK5 2.6 nM, TGFβ1 peptide 94.5 μM, ATP 0.83 μM, 120 min, 25° C.; pIC50 converted to pKi using the Cheng-Prusoff equation
pKi: −log10 of the molar value. Structures can show the parent of a compound that is named as a salt.
Measured Endpoint: pKi

CN1CCN(CCC(=O)Nc2cc(-c3c(-c4cc(Cl)ccc4F)nc4n3CCN4)ccc2F)CC1 ... 8.10 to 8.90
O=C(CCN1CCCCC1)Nc1cc(-c2c(-c3cc(Cl)ccc3F)nc3n2CCN3)ccc1F ... ≥ 9.00
Cc1cccc(-c2nc3n(c2-c2ccc(F)c(NC(=O)CCC[N+]4(C)CCCCC4)c2)CCN3)n1 [Example 12, hydrochloride] ... 8.10 to 8.90
Cc1cccc(-c2nc3n(c2-c2ccc(F)c(NC(=O)CN(C)C)c2)CCN3)n1 ... 7.50 to 8.00

Measured pKi, Cc1cccc(-c2nc3n(c2-c2ccc(F)c(NC(=O)CCN4CCN(CCO)CC4)c2)CCN3)n1 : 8.10 to 8.90
